Cited source: PubChem BioAssay AID1963844

# Tested on: 422866-222-R5-J1-PDC complex spheroid viability;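 note: spheroids exposed to compounds for one week before readout; percent of DMSO vehicle wells luminescence so 100% = untreated viability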
# Measurement description: Anticancer human tumor 422866-222-R5-J1-PDC patient-derived pancreatic adenocarcinoma cell line growth inhibition [POLQ]
# Protocol conditions: second compound 0.316 µM; first compound 3.16 µM; stronger effect = lower value
# Experimental: Multicellular complex tumor spheroid response to Polymerase (POL) inhibitors (novobiocin, ART-558, RP6685) in combination with a variety of drugs and investigational agents in selected tumor cell lines The POL inhibitors (novobiocin, ART-558, and RP6685) were evaluated both individually and in combination with standard of care and investigational anticancer small molecules within a complex spheroid model of solid tumors. . […]
Please go through the items and note down their viability, T/C.
Answers are plain numbers, in %.

{"Compound": "COc1cc2cc(C(=O)CCC(=O)O)sc2cc1OC + Cc1cccc(N(C)C(=O)C2C(O)CCN2c2nc(C)cc(C(F)(F)F)c2C#N)c1", "Experimental system": "422866-222-R5-J1-PDC complex spheroid viability", "viability, T/C [%]": 93.7}
{"Compound": "CC1COCCN1c1cc(-c2ccnn2C)c2ccnc(-c3ccn[nH]3)c2n1 (stereo not given) + Nc1ccc(C#CCN(C(=O)Cc2ncc(C(F)(F)F)cc2C(F)(F)F)c2ccc(F)cc2)nn1", "Experimental system": "422866-222-R5-J1-PDC complex spheroid viability", "viability, T/C [%]": 68.2}

State the recorded viability, T/C for every item in the following list.
1. C=CC(=O)N1CCN(c2nc(=O)n(-c3c(C)ccnc3C(C)C)c3nc(-c4c(O)cccc4F)c(F)cc23)C(C)C1 (stereo not given) + COC1C(OC(N)=O)C(O)C(Oc2ccc3c(O)c(NC(=O)c4ccc(O)c(CC=C(C)C)c4)c(=O)oc3c2C)OC1(C)C
2. O=C(c1cc(Cc2n[nH]c(=O)c3ccccc23)ccc1F)N1CCN(C(=O)C2CC2)CC1 + COC1C(OC(N)=O)C(O)C(Oc2ccc3c(O)c(NC(=O)c4ccc(O)c(CC=C(C)C)c4)c(=O)oc3c2C)OC1(C)C
3. COc1ccc([C@@H](O)c2cc(-c3ncnc4cc(N5CCOCC5)ccc34)c(F)cc2Cl)nn1 + Cc1cccc(N(C)C(=O)C2C(O)CCN2c2nc(C)cc(C(F)(F)F)c2C#N)c1

[24.4, 31, 43.9]
